TARGET_DESC: Plasmodium falciparum protein kinase 6 (PK6, PF3D7_1337100) (UniProt Q8IDW1)
MEASUREMENT_DESCRIPTION: PfPK6 kinase inhibitors, biochemical, TCAMS library (AID 1159586)
SETTINGS: recombinant PfPK6, Kinase-Glo ATP depletion luminescence
Potency and affinity values are given separately. Active and inactive are the calls of the source. No rule for the calls is given here.
MEASURE_NAME: outcome

These recorded examples may help you get a feel for the data.
molecule=CS(=O)(=O)Nc1cccc(-c2cnc3[nH]cc(-c4ccc(CCC(=O)O)cc4)c3c2)c1 experimental_value=inactive
molecule="CCOC(=O)/C(=N\\OC(C(=O)OC(C)(C)C)c1ccccc1)c1csc(NC(c2ccccc2)(c2ccccc2)c2ccccc2)n1 (stereo not drawn)" experimental_value=inactive
molecule=Cc1ccc2nc(C)cc(NN=Cc3ccccc3[N+](=O)[O-])c2c1 experimental_value=inactive
molecule="CCC(C)(C)c1ccc(OCC(O)CN2CCCCC2)c(C(C)(C)CC)c1 (stereo not drawn)" experimental_value=inactive
molecule=COc1cc(C=NNc2cc(C)nc3ccccc23)cc(OC)c1OC experimental_value=inactive
molecule=COc1ccc(CN2CCC(NCc3cccc(C(F)(F)F)c3)CC2)cc1 experimental_value=inactive
molecule=CN1CCC(C(=O)N(Cc2ccc(-c3ccc(CNCCc4ccc(S(C)(=O)=O)cc4)cn3)cc2)Cc2ccc3c(c2)OCO3)CC1 experimental_value=inactive
molecule=O=C(Nc1cccc(CN2CCCN(Cc3ncc[nH]3)CC2)c1)c1cc2ccccc2s1 experimental_value=inactive
molecule=Cc1ccc(Cc2cnc(NCCSCc3ccc(CN(C)C)s3)[nH]c2=O)cn1 experimental_value=inactive
molecule="CCN(CC)CCOc1ccc(C(O)(C#CC(O)(c2ccc(OCCN(CC)CC)cc2)c2ccc([N+](=O)[O-])cc2)c2ccc([N+](=O)[O-])cc2)cc1 (stereo not drawn)" experimental_value=inactive

Attention now turns to another entry.
Query string: Form: Entry = `O=C(/C=C/c1ccc(Cl)c(Cl)c1)NCCCCCN1CCC(NC(=S)Nc2ccc(Cl)cc2)CC1` | System = Plasmodium falciparum protein kinase 6 (PK6, PF3D7_1337100) (UniProt Q8IDW1) | outcome = ____
Result string: inactive

---

TARGET_DESC: Protein kinase 7 (PK7), Plasmodium falciparum 3D7 (PF3D7_0213400)
MEASUREMENT_DESCRIPTION: inhibition of Plasmodium PK7 catalytic activity – biochemical, TCAMS antimalarial set, Kinase-Glo luminescence (AID 1159587)
SETTINGS: recombinant PfPK7, Kinase-Glo ATP depletion luminescence
Active and inactive are the calls of the source. How the calls were made is not given here.
MEASURE_NAME: outcome

These recorded examples may help you get a feel for the data.
molecule=Cn1nccc1C(=O)NCCNCc1ccc(-c2cccc(-c3nc4ccccc4[nH]3)c2)cc1 measure_name=outcome experimental_value=inactive
molecule="COc1ccc(C2CC(c3ccccc3O)=NN2C(=O)c2ccco2)cc1OC (centres undefined)" measure_name=outcome experimental_value=inactive
molecule="O=C(NC1CCN(c2ccnc3ccccc23)C1)c1cccc(C(F)(F)F)c1 (centres undefined)" measure_name=outcome experimental_value=inactive
molecule=Cc1ccc2c(=O)cc(CCc3cccc(F)c3F)n(CC(=O)N(Cc3ccc(-c4ccc(C(F)(F)F)cc4)cc3)C3CCN(C)CC3)c2n1 measure_name=outcome experimental_value=inactive
molecule=Nc1nc(N)c2c(ccc3c2ccn3CC2CC2)n1 measure_name=outcome experimental_value=inactive

Attention now turns to another entry.
Query string: Dear colleague, I am looking for the recorded outcome of the following molecule: CCCC(CNCc1cccc(OC(F)(F)F)c1)CNc1cc(=O)c2ccccc2[nH]1 (centres undefined)
Result string: inactive

---

TARGET_DESC: L-lactate dehydrogenase (Plasmodium falciparum (isolate CDC / Honduras)) (UniProt Q27743)
Sequence (Q27743 whole entry, looked up): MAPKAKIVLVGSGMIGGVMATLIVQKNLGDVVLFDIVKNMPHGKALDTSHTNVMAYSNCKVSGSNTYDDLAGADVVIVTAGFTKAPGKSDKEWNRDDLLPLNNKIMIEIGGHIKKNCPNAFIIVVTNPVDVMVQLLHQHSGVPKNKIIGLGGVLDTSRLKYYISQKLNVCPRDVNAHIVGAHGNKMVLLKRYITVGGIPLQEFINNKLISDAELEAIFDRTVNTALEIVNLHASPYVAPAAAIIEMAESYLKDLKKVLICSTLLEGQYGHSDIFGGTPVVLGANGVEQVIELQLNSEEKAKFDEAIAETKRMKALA
MEASUREMENT_DESCRIPTION: PfLDH activity inhibition – cell lysate, 3D7 strain, counter-screen for P. falciparum growth inhibition project (AID 2304);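 also: 0% = vehicle and 100% = reference inhibitor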
SETTINGS: P. falciparum 3D7 crude extract, LDH APAD/NBT absorbance; at 2 µM; stronger effect = higher value
Calls of active or inactive are those of the source. How the calls were made is not given here.
MEASURE_NAME: inhibition

These recorded examples may help you get a feel for the data.
compound=CN(C)[C@@H]1C(=O)C(C(N)=O)=C(O)[C@@]2(O)C(=O)C3=C(O)c4c(O)ccc(C#Cc5ccccn5)c4C[C@H]3C[C@@H]12 measure_name=inhibition experimental_value="-6% (inactive)"
compound=CCc1ccc(NC(=O)c2ccc(CN3CCCN(CCC(C)C)CC3)cc2)cc1 measure_name=inhibition experimental_value="-7% (inactive)"
compound=COc1ccc2nccc([C@@H](O)CN3CCC(NCc4cc5ccccc5cn4)CC3)c2n1 measure_name=inhibition experimental_value="-2% (inactive)"
compound=CC(=O)c1c(Nc2c(C)cc(C)cc2C)oc(C)cc1=O measure_name=inhibition experimental_value="7% (inactive)"

Query string: Dear colleague, I am looking for the recorded inhibition of the following compound: C=CCOC(=O)N1CCC(CNCc2ccc(-c3cccc(-c4nc5ccccc5[nH]4)c3)cc2)C1 (centres undefined)
Result string: 2% (inactive)

Query string: // same read-out, input: N#Cc1ccc2c(c1)CCN(CCC1CCC(NC(=O)c3cccc(-c4ccc(F)cc4)c3)CC1)CC2 (centres undefined)
Result string: -3% (inactive)

Query string: // same read-out, input: `CCC[C@@H]([C@@H](CC(C)C)C(=O)N[C@@H](CCCCNC(=O)c1ccccn1)C(=O)Nc1nccs1)N(O)C=O`
Result string: -3% (inactive)

Query string: // same read-out, input: `NC(=NCCc1ccc(Cl)cc1)c1ccc(Cl)c(Cl)c1`
Result string: -1% (inactive)

Query string: // same read-out, input: O=C(NC1CCN(c2ccnc3ccccc23)C1)c1cccc(C(F)(F)F)c1 (centres undefined)
Result string: 6% (inactive)

---

MEASUREMENT_DESCRIPTION: inhibition of 3D7 malaria parasite growth – strain 3D7 (AID 2306);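 also: 0% = DMSO wells and 100% = chloroquine plus artemisinin control wells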
SETTINGS: P. falciparum 3D7 erythrocytic growth, LDH absorbance, 72 h; at 2 µM; stronger effect = higher value
Recorded growth inhibition for the following compounds
Numbers only; they are read as %.

Query string: Dear colleague, I am looking for the recorded growth inhibition of the following compound: `O=C(N[C@@H](Cc1ccccc1)C(=O)NCc1cccc(C(F)(F)F)c1)c1ccc(O)c(-c2ccc(Cl)c(Cl)c2)c1`
Result string: 96

Query string: // same read-out, input: `CCc1cn2c3c(cc(C(=O)N[C@@H](Cc4ccccc4)[C@H](O)CNC4CCOCC4)cc13)N(C(C)C)S(=O)(=O)CC2`
Result string: 98

Query string: // same read-out, input: `O=C(NCc1cccc(Br)c1)c1ccc(CNC2CCN(Cc3ccccc3)CC2)cc1`
Result string: 100

Query string: // same read-out, input: `N#Cc1ccc2c(c1)CN(CCCCNC(=O)c1ccc(-c3ccccc3)cc1)CC2`
Result string: 96

---

MEASUREMENT_DESCRIPTION: antimalarial activity against Dd2 strain (AID 2302);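 also: 0% = DMSO untreated growth and 100% = chloroquine plus artemisinin killed control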
SETTINGS: P. falciparum Dd2 in RBCs, LDH growth readout, 72 h; at 2 µM; stronger effect = higher value
Recorded growth inhibition for the following compounds
Numbers only; they are read as %.

compound=Cc1cc(NCCc2ccccc2)nc(/N=C(\N)Nc2cccc(F)c2)n1 measure_name="growth inhibition" units=% experimental_value=-1

Query string: Dear colleague, I am looking for the recorded growth inhibition of the following compound: `COc1ccc(Nc2cc(C)c3cc(NC(=O)c4ccncc4)ccc3n2)cc1`
Result string: 26

Query string: // same read-out, input: O=C(Nc1ccc(F)cc1)NC1CCN(c2ccnc3ccccc23)C1 (stereo not given)
Result string: 2

Query string: // same read-out, input: `Cc1cc(N2CCCCC2)nc2ccc(NC(=O)c3cccc([N+](=O)[O-])c3)cc12`
Result string: 99

Query string: // same read-out, input: `Cc1ccc(NC(=O)c2ccc(CN3CCCN(CC4CCCCC4)CC3)cc2)cc1F`
Result string: 61

Query string: // same read-out, input: O=C(Nc1ccc(C(F)(F)F)cc1)NC1CCN(c2ccnc3ccccc23)C1 (stereo not given)
Result string: 89

Query string: // same read-out, input: `CCCC(CCC)n1ccc2c3c(N)nc(N)nc3ccc21`
Result string: 97

Query string: // same read-out, input: `O=C(/C=C/c1ccc(Cl)c(Cl)c1)NCCCCCN1CCC(NC(=S)Nc2ccc(F)cc2F)CC1`
Result string: 18

Query string: // same read-out, input: CC(C)(C)c1ccc(CN2CCC(CNC(=O)c3cc(-c4ccccc4F)cs3)C2)cc1 (stereo not given)
Result string: 98

Query string: // same read-out, input: CC(CN(C)C)C(=O)Nc1ccc(-c2csc(-c3nc4ccccc4[nH]3)c2)cc1 (stereo not given)
Result string: 19

---

MEASUREMENT_DESCRIPTION: human hepatoma cell viability loss – ATP luminescence, cytotoxicity control for P. falciparum antimalarial project, primary screen (AID 2303);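 also: 0% = DMSO wells and 100% = digitonin-killed cells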
SETTINGS: HepG2 viability, 24-48 h, at 10 µM, stronger effect = higher value
Rule for this label: Criterion met means inhibition is less than 20%; Criterion not met means inhibition is at least 20%.

The following compounds have reported results that may help.
compound=Cc1c(Cn2ncc(N3C[C@@H](C)N[C@@H](C)C3)c(Cl)c2=O)cccc1NC(=O)Nc1ccc(-c2ccccc2)cc1 class_label="Criterion not met"
compound="COc1ccccc1CN1CCC(CNC(=O)c2cc(-c3ccc(N(C)C)cc3)cs2)C1 (configuration not stated)" class_label="Criterion met"

Query string: Dear reviewer, please state whether `CCCCCCN1CCCN(Cc2ccc(C(=O)Nc3ccc(C(C)C)cc3)cc2)CC1` has inhibition strictly beneath 20%.
Result string: Criterion not met

Query string: // same read-out, input: `CNC(=O)COC(=O)c1c2c(nc3ccccc13)C(=Cc1ccc3c(c1)OCO3)CCC2`
Result string: Criterion met

Query string: // same read-out, input: `O=C(/C=C/c1ccc(Cl)c(Cl)c1)NCCCCCN1CCC(c2c[nH]c3cc(O)ccc23)CC1`
Result string: Criterion not met

Query string: // same read-out, input: C=CCOC(=O)N1CCC(CNCc2cccc(-c3cccc(-c4nc5c(C)cccc5[nH]4)c3)c2)C1 (configuration not stated)
Result string: Criterion not met

Query string: // same read-out, input: `CS(=O)(=O)Nc1cccc(-c2cnc3[nH]cc(-c4ccc(CCC(=O)O)cc4)c3c2)c1`
Result string: Criterion met

Query string: // same read-out, input: `CC(C)(C)c1ccc2nc(-c3ccc(/C=C/C(=O)NCc4cccc(C(F)(F)F)c4)cc3)[nH]c2c1`
Result string: Criterion not met

Query string: // same read-out, input: `Cc1cc2ncn(-c3ccnc(N4CCN(CCCN5CCCC5)CC4)n3)c2cc1C`
Result string: Criterion not met

Query string: // same read-out, input: `CCNc1cc(C)nc(Nc2ccc(NS(=O)(=O)c3cc(OC)ccc3OC)cc2)n1`
Result string: Criterion not met

Query string: // same read-out, input: COc1ccc2nccc([C@@H](O)CN3CCC(NC(=O)C(c4cc5ccccc5s4)N4CC(C)OC(C)C4)CC3)c2c1 (some centres not stated)
Result string: Criterion met

Query string: // same read-out, input: `Cc1c(Cn2nc(Cl)c(N3CCNCC3)cc2=O)cccc1NC(=O)Nc1ccc(-c2ccccc2)cc1`
Result string: Criterion not met
